Kindly state IC50 for each of the entries shown.
- test system: CDK2/Cyclin E1 (Homo sapiens)
- protocol: CDK2/Cyclin E1 Caliper LabChip EZ Reader mobility shift assay
- Assay type: biochemical
- Parameters: purchased Eurofins 14-475
- test conditions: read-out: Caliper Assay (CDK2/CCNE1): IC50

# annotated cases, reported IC50 shown
CNC(=O)[C@@H](NC(=O)[C@H]1CN(C(=O)c2cnn(Cc3ccccc3)c2)CC12CN(C(=O)[C@H]1CC1(C)C)C2)[C@@H](C)OCC1CCC(C(F)(F)F)CC1 (some centres unmarked) [I-141B] : 100 to 1000 nM
C[C@@H](OCC1CCCCC1)[C@H](NC(=O)[C@@H]1CN(C(=O)c2cnn(Cc3ccccc3)c2)CC12CN(C(=O)[C@H]1CC1(C)C)C2)C(=O)N1CCOCC1 [I-152A] : ≤ 10 nM
COC[C@H]1CCCN(C(=O)[C@@H](NC(=O)[C@@H]2CN(C(=O)c3cncs3)CC23CN(C(=O)[C@H]2CC2(C)C)C3)[C@@H](C)OC(C)C2CCC(F)(F)CC2)C1 (some centres unmarked) : ≤ 10 nM
CC(O[C@H](C)[C@@H](COC1CCC(F)(F)CC1)NC(=O)[C@@H]1CN(C(=O)c2cncs2)CC12CN(C(=O)[C@H]1CC1(F)F)C2)C1CCC(F)(F)CC1 (some centres unmarked) : 100 to 1000 nM

IC50 of CNC(=O)[C@@H](NC(=O)[C@@H]1CN(C(=O)c2cnn(Cc3ccccc3)c2)CC12CN(C(=O)[C@H]1CC1(C)C)C2)[C@@H](C)OCC1CCCC1 [I-110A] on CDK2/Cyclin E1 (Homo sapiens)?
10 to 100 nM

* * *

Kindly state IC50 for each of the entries shown.
- test system: CDK2/Cyclin E1 (Homo sapiens, UniProt P24941)
- protocol: CDK2/Cyclin E1 Caliper LabChip EZ Reader mobility shift assay
- Format: biochemical
- Design: purchased Eurofins 14-475
- test conditions: read-out: Caliper Assay (CDK2/CCNE1): IC50

# annotated cases, reported IC50 shown
CC1(C)C[C@@H]1C(=O)N1CC2(CN(C(=O)c3cnn(Cc4ccccc4)c3)C[C@H]2C(=O)NC2CCNC(=O)C2)C1 (stereo partly drawn) [I-223] : > 10000 nM
CNC(=O)[C@@H](NC(=O)[C@H]1CN(C(=O)c2cnn(Cc3ccccc3)c2)CC12CN(C(=O)[C@H]1CC1(C)C)C2)[C@@H](C)OCC(C)C [I-137B] : 1000 to 10000 nM
CNC(=O)[C@@H](NC(=O)[C@@H]1CN(C(=O)c2cnn(CC3CCOCC3)c2)CC12CN(C(=O)[C@H]1CC1(C)C)C2)[C@@H](C)OCc1ccccc1 [I-95A] : 100 to 1000 nM
CNC(=O)[C@@H](NC(=O)[C@@H]1CN(C(=O)c2cnn(CC3CCNCC3)c2)CC12CN(C(=O)[C@H]1CC1(C)C)C2)[C@@H](C)OCc1ccccc1 [I-19A] : 100 to 1000 nM
C[C@@H](OCC1CCCCC1)[C@H](NC(=O)[C@@H]1CN(C(=O)c2cnn(Cc3ccccc3)c2)CC12CN(C(=O)[C@H]1CC1(C)C)C2)C(=O)NCC(C)(C)C(=O)O [I-472] : ≤ 10 nM

// for each compound below, give its IC50
1. COC(=O)[C@@H](CO)NC(=O)[C@H]1CN(C(=O)c2cnn(Cc3ccccc3)c2)CC12CN(C(=O)[C@H]1CC1(C)C)C2 [I-187B]
2. C[C@H](NC(=O)[C@@H]1CN(C(=O)c2cnn(Cc3ccccc3)c2)CC12CN(C(=O)[C@H]1CC1(C)C)C2)c1cccc(F)c1 [I-127A]
3. CNC(=O)[C@@H](NC(=O)[C@@H]1CN(C(=O)c2cncs2)CC12CN(C(=O)[C@H]1CC1(C)C)C2)[C@@H](C)OC1C2CC3CC(C2)CC1C3 (stereo partly drawn) [I-463]
4. CNC(=O)[C@@H](NC(=O)[C@@H]1CN(C(=O)c2cnn(CC(F)(F)F)c2)CC12CN(C(=O)CC1CC1)C2)[C@@H](C)OCc1ccccc1 [I-43A]
5. CNC(=O)[C@@H](NC(=O)[C@@H]1CN(C(=O)c2cnn(Cc3ccccc3)c2)CC12CN(C(=O)[C@H]1CC1(C)C)C2)[C@@H](C)OCC1C[C@@H](C)C[C@@H](C)C1 (stereo partly drawn) [I-249]
6. CCCCC1CC1C(=O)N1CC2(CN(C(=O)c3cnn(Cc4ccccc4)c3)C[C@@H]2C(=O)N[C@H](C(=O)NC)[C@@H](C)OCc2ccccc2)C1 (stereo partly drawn) [I-94B]
7. COC[C@H]1CCCN(C(=O)[C@@H](NC(=O)[C@@H]2CN(C(=O)c3cncs3)CC23CN(C(=O)[C@H]2CC2(C)C)C3)[C@@H](C)OC[C@H]2CC[C@H](NC(C)=O)CC2)C1 [I-434]

1. > 10000 nM
2. 1000 to 10000 nM
3. 10 to 100 nM
4. > 10000 nM
5. 10 to 100 nM
6. > 10000 nM
7. 100 to 1000 nM
